assay: Apparent permeability from apical to basolateral side in MDCK cells at 2 uM by LC-MS/MS analysis
Format: ADME, cell-based, Canis lupus familiaris
measurement.conditions: dog
Please respond with YES when measured Papp A→B at 2 µM is strictly beneath 20 ×10⁻⁶ cm/s, and with NO in all other cases.

# example entries with known answers
>>> print(df.to_string())
                                   compound  discrete_label
0  CC(C)S(=O)(=O)NCC1CC(c2ccc(-c3ccccc3C#N)c(F)c2)=NO1 (racemic)             YES
1  CC(C)S(=O)(=O)NCC1CC(c2ccc(-c3ccc(C#N)cc3)c(F)c2)=NO1 (racemic)             YES
2  CC(C)S(=O)(=O)NC[C@@H]1CC(c2ccc(-c3ccccc3C#N)c(F)c2)=NO1              NO

Query: Determine if "CC(C)S(=O)(=O)NC[C@@H]1CC(c2ccc(N3CCCC3)c(F)c2)=NO1" shows Papp A→B at 2 µM strictly lower than 20 ×10⁻⁶ cm/s.
Response: YES

Query: Determine if CC(C)S(=O)(=O)NCC1CC(c2ccc(-c3cccnc3)c(F)c2)=NO1 (racemic) shows Papp A→B at 2 µM strictly lower than 20 ×10⁻⁶ cm/s.
Response: NO

Query: Determine if "CC(=O)N[C@H]1CCN(c2ccc(C3=NO[C@H](CNS(=O)(=O)C(C)C)C3)cc2F)C1" shows Papp A→B at 2 µM strictly lower than 20 ×10⁻⁶ cm/s.
Response: YES

Query: Determine if CC(C)S(=O)(=O)NCC1CC(c2ccc(-c3cccc(C#N)c3)c(F)c2)=NO1 (racemic) shows Papp A→B at 2 µM strictly lower than 20 ×10⁻⁶ cm/s.
Response: YES

* * *

assay: Fraction unbound in Sprague-Dawley rat plasma at 0.01 mg/kg, iv
Assay type: ADME, organism-based
Parameters: dose 0.01 mg/kg, route intravenous
test.readout: fraction unbound

Query: Can you share its fraction unbound? I mean this compound: "CC(C)S(=O)(=O)NC[C@@H]1CC(c2ccc(N3CCCC3)c(F)c2)=NO1"
Response: 0.027

* * *

Test system: MDR1
assay: Efflux ratio of apparent permeability in MDCK cells expressing MDR1
Assay type: ADME, cell-based, Canis lupus familiaris
measurement.conditions: dog
test.readout: efflux ratio
Provide a numeric answer; units are not to be included.

Query: Can you share its efflux ratio? I mean this compound: "CC(=O)NC[C@@H]1CC(c2ccc(N3CCCC3)c(F)c2)=NO1"
Response: 0.98

* * *

Catalogue of pKi values
assay: Displacement of [3H]PF-04725379 from Sprague-Dawley rat AMPAR after 2 hrs by liquid scintillation counting analysis
// scale note: pKi = -log10(conc_M); give the bare number

>>> df
                                smiles_data  reported
0  CC(C)S(=O)(=O)NC[C@H]1CC(c2ccc(N3CCCC3)c(F)c2)=NO1      5.24

Proceed to the following item.
Query: Can you share its pKi? I mean this compound: "CC(C)S(=O)(=O)NC[C@@H]1CC(c2ccc(-c3ccccc3C#N)c(F)c2)=NO1"
Response: 7.62

* * *

assay: Terminal half life in Sprague-Dawley rat brain at 0.2 mg/kg, sc qd
Assay type: ADME, organism-based
Set-up: dose 0.2 mg/kg, route subcutaneous
measurement.conditions: read-out: beta t1/2 (converted)
test.readout: half-life (min)
Field format: number, assumed min, no unit text.

Query: Can you share its half-life? I mean this molecule: "CC(C)S(=O)(=O)NC[C@@H]1CC(c2ccc(N3CCCC3)c(F)c2)=NO1"
Response: 24
